Reported cytotoxicity at 70.5 h values are given for each entry in this list.
# Assay info: Human HepG2 cell viability assay in 384 well format
# Type: toxicity, cell-based
# Parameters: dose 125 nL, time 70.5 hour; concentration not given beside the values
# Run parameters: HepG2 cells, read-out: Inhibition
Kindly format the answer as number then unit.

Illustrative cases are given below, each with its answer.
INSERT INTO measurements (molecule, result) VALUES
  ('CCn1nc(CC(C)C)cc1C(=O)N1CC(N2CCCCC2C)C1 (stereo not drawn)', '-2.38%'),
  ('CCn1ccnc1CN1CCCN(C(=O)c2csc(C)n2)CC1', '-5.02%'),
  ('CCCn1nc(C)c(C(=O)N(C)[C@@H]2CC[C@@H](OC)[C@@H]2O)c1C', '-3.89%'),
  ('O=C1NCC2(CCCN(Cc3ccc(F)cc3)C2)Oc2ccccc21 (stereo not drawn)', '-1.98%'),
  ('COc1cc(C)ccc1OCC(=O)NS(=O)(=O)c1cc(F)ccc1F', '-4.22%'),
  ('CCN(C(=O)c1ccc2nnc(C3CCN(C)C3)n2c1)C(C)C (stereo not drawn)', '-11.3%'),
  ('Cn1nnc2c1CCN(Cc1ccco1)C2COCc1ccccc1 (stereo not drawn)', '1.81%'),
  ('Cc1ncc(CN(C)C(=O)Nc2ccc(CN3CCOC3=O)cc2)s1', '-7.05%'),
  ('COCCC1(CO)CCCN(Cc2ccncc2)C1 (stereo not drawn)', '-3.98%'),
  ('c1cnn(CC2CCCCN2c2ncnc3ccsc23)c1 (stereo not drawn)', '18.2%');

Problem: Indicate its recorded cytotoxicity at 70.5 h; the molecule in question is COc1ccc(CC(C)Nc2cccc(F)c2)cc1 (stereo not drawn)
Result: -1.11%

Problem: Read off the recorded cytotoxicity at 70.5 h for Cc1ccc(S(=O)(=O)N2CC[C@@H]3C[C@H](NC(=O)c4[nH]ncc4Br)[C@@H]32)cc1
Result: -5.6%

Problem: Output measured cytotoxicity at 70.5 h for this item: Cc1cccc(CN2CCOC(C)(C(=O)N3CCOCC3)C2)n1 (stereo not drawn)
Result: 11%

Data origin: ChEMBL document CHEMBL3507680
